Entries and their interaction score
Biological target: T1, 4H3595-AA
T1 chain: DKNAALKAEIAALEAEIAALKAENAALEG
Experiment: two-hybrid library CCmax;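 also: natural log of median RNA to DNA barcode read ratio; higher means stronger binding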
Details: mean of both orientations

| binder | interaction score |
| --- | --- |
| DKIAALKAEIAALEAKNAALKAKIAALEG [4H2621-AA] | 0.312 |
| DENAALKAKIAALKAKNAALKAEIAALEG [4H1913-AA] | -1.29 |
| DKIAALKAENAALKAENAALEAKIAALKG [4H2774-AA] | -1.57 |
| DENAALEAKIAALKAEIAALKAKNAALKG [4H1360-AA] | 2 |
| DKNAALEAKIAALKAENAALEAKIAALKG [4H3414-AA] | -1.09 |
| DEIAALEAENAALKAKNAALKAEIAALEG [4H249-AA] | -1.4 |
| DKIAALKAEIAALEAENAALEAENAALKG [4H2580-AA] | -1.29 |
